Overview of recorded kon for various binders
Target: T1, recombinant human AXL extracellular domain, C-terminally His8-tagged (rhAXL-ECD) (human, UniProt P30530 26-451)
T1 construct: Made in CHO cells; also called (rh)AXL-ECD His8; human AXL ECD
T1 sequence: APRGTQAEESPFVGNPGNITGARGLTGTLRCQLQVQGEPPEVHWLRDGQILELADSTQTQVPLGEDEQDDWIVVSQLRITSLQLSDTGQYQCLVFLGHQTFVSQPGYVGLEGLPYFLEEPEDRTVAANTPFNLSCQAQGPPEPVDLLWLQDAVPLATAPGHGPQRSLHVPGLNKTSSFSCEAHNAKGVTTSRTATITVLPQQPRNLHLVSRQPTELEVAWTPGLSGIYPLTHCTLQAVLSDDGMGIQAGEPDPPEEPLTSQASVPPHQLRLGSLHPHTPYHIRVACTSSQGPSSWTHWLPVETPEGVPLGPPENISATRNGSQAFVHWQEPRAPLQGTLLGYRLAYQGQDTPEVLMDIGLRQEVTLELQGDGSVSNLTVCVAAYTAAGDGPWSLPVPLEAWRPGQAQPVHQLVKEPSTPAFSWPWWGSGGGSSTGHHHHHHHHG
Assay: SPR Biacore T200, mAb captured on anti-Fc, AXL ECD flowed, single-cycle kinetics
// note: answer is a bare numeric in M⁻¹ s⁻¹

Some binders with recorded kon:
Recorded kon for hFC-F111-3C8 (antibody, human IgG1, kappa, V domains shown, Chimeric mAb, human IgG1 / human kappa constant regions; also called mAb F111-3C8; chimeric F111-3C8) VH: QVQLQQPGAELGKPGTSVKLSCKASGYTFTSYWMHWVKRVPGQGLEWIGNINPNSTSADYNEKFKRKATLTVDKSSSTAYMQLSTLTSEDSAVYYCTRPLMGPYWYFDVWGTGTTVTVSS VL: QIVLTQSPAIMSASPGEKVTISCSASSSVSYMYWYQQKPGSSPKPWIYRTSNLASGVPARFSGSGSGTSYSLTISSMEAEDAATYYCQQYHNYPPTFGGGTKLEIKR , please?
86000

kon for hFC-F111-5E9 (antibody, human IgG1, kappa, V domains shown, Chimeric mAb, human IgG1 / human kappa constant regions; also called mAb F111-5E9; hIgG-F111-5E9) VH: QIQLVQSGPELKKPGETVKISCKASGYTFTKYGMNWVKQAPGKGLKWMGWINTYTGEPTYADDFKGRFAFSLETSASTAYLQINNLTTEDMVTYFCAKGGYYSNPIYPMDYWGQGTSVTVSS VL: DIQMTQTTSSLSASLGDRVTISCRASQDINNYLNWYQQKPDGTVKLLIYYISRLHSGVPSRFSGSGSGTDYSLTISNLELEDVATYFCQQGNTLPFTFGSGTKLEIKR ?
780000

Let us move to another entry and its kon.
Any idea what kon was measured for hFC-F107-10G1 (antibody, human IgG1, kappa, V domains shown, Chimeric mAb, human IgG1 / human kappa constant regions; also called mAb F107-10G1) VH: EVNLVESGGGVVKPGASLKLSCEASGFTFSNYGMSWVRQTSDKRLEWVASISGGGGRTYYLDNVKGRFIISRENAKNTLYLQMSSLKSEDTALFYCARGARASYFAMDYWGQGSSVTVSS VL: VIVMTQSHKFMSTSVGDRVSITCKASQDVTTAVAWYQQKPGQSPKLLIYWASTRHTGVPDRFTGSGSGTDYSLTISNVQTEDLAFYYCQQHFTTPLTFGAGTKLELKR ?
1.1e+06
